# target: Syk (Homo sapiens, UniProt P43405)
# Construct: purchased Carna Biosciences
# method.description: Syk HTRF assay
# Format: biochemical
# run.parameters: activity levels A-D, read-out: Activity Level (IC50 in the Syk HTRF assay)
Entries annotated with measured IC50

Some solved entries appear below for comparison.
compound	IC50
O[C@H]1CC[C@@H](Nc2cccc3nc(Nc4ccccc4F)nn23)CC1	1000 to 10000 nM
COc1cc(Nc2nc3cccc(N[C@H]4CC[C@@H](O)CC4)n3n2)ccn1	0.005 to 250 nM

Challenge: // query IC50 value for entry Cc1cc(Nc2nc3cccc(N[C@H]4CC[C@@H](O)CC4)n3n2)cc2[nH]ncc12
Response given: 0.005 to 250 nM

Challenge: // query IC50 value for entry FC(F)(F)c1ccc(Nc2nc3cccc(OC[C@H]4CCCN4)n3n2)cc1
Response given: 1000 to 10000 nM

Challenge: // query IC50 value for entry Nc1n[nH]c2cc(Nc3nc4cccc(CC5CCC(O)CC5)n4n3)ccc12 (centres unmarked)
Response given: 0.005 to 250 nM

Challenge: // query IC50 value for entry O=C1NCC[C@H]1NCc1cccc2nc(Nc3ccc(C(F)(F)F)cc3)nn12
Response given: 1000 to 10000 nM

Challenge: // query IC50 value for entry Cc1cc(Nc2nc3cccc(N[C@H]4CC[C@@H](O)CC4)n3n2)ccc1F
Response given: 0.005 to 250 nM

Challenge: // query IC50 value for entry NC(=O)c1cncc(Nc2nc3cccc(N[C@H]4CC[C@@H](O)CC4)n3n2)c1
Response given: 1000 to 10000 nM

Challenge: // query IC50 value for entry CNC(=O)c1ccc(Nc2nc3cccc(N[C@H]4CC[C@H](O)CC4)n3n2)cc1 (stereo in doubt)
Response given: 1000 to 10000 nM

Challenge: // query IC50 value for entry CNc1cc(Nc2nc3cccc(N[C@H]4CC[C@@H](O)CC4)n3n2)ccn1
Response given: 0.005 to 250 nM

Challenge: // query IC50 value for entry O[C@H]1CC[C@@H](Nc2cccc3nc(Nc4cccc(Cl)c4)nn23)CC1
Response given: 0.005 to 250 nM

Challenge: // query IC50 value for entry NC(=O)c1ccc(Nc2nc3cccc(N[C@H]4CC[C@@H](O)CC4)n3n2)cn1
Response given: 500 to 1000 nM

Challenge: // query IC50 value for entry O=C1CN(Cc2cccc3nc(Nc4ccc(C(F)(F)F)cc4)nn23)CN1
Response given: 1000 to 10000 nM
